Attribute: melting point

Recorded melting point, per entry:
molecule="COc1cc(OC(C)c2ccc(C(F)(F)F)cn2)ccc1-c1[nH]c(-c2ccc(F)nc2)nc1Cl (stereo not shown) [Example 240]" value_reported="165 to 168 °C"
molecule="COc1cc(OCc2ncc(C(F)(F)F)cc2F)ccc1-c1[nH]c(-c2ccc(F)nc2)nc1C [Example 331]" value_reported="100 to 105 °C"
molecule="COc1cc(OCc2ccc(C(F)(F)F)cn2)ccc1-c1c(Br)nc(-c2ccc(F)nc2)n1C [Example 303]" value_reported="130 to 132 °C"

Let us move to another entry and its melting point.
Fill in the blank: the reported melting point of COc1cc(OCc2ccc(C(F)(F)F)cn2)ccc1-c1[nH]c(C2CCCC(F)(F)C2)nc1Cl (stereo not shown) [Example 182] is ____.
162 to 164 °C
